target: panel of 255 wild-type kinases (Homo sapiens, UniProt Q96RG2); assay: Kinase panel profiling at 1 µmol/L (MSA or IMAP), percentage inhibition; type: biochemical; conditions: PASK; 1 µmol/L single concentration; read-out: %-inhibition, PASK
Sequence (Q96RG2 whole entry): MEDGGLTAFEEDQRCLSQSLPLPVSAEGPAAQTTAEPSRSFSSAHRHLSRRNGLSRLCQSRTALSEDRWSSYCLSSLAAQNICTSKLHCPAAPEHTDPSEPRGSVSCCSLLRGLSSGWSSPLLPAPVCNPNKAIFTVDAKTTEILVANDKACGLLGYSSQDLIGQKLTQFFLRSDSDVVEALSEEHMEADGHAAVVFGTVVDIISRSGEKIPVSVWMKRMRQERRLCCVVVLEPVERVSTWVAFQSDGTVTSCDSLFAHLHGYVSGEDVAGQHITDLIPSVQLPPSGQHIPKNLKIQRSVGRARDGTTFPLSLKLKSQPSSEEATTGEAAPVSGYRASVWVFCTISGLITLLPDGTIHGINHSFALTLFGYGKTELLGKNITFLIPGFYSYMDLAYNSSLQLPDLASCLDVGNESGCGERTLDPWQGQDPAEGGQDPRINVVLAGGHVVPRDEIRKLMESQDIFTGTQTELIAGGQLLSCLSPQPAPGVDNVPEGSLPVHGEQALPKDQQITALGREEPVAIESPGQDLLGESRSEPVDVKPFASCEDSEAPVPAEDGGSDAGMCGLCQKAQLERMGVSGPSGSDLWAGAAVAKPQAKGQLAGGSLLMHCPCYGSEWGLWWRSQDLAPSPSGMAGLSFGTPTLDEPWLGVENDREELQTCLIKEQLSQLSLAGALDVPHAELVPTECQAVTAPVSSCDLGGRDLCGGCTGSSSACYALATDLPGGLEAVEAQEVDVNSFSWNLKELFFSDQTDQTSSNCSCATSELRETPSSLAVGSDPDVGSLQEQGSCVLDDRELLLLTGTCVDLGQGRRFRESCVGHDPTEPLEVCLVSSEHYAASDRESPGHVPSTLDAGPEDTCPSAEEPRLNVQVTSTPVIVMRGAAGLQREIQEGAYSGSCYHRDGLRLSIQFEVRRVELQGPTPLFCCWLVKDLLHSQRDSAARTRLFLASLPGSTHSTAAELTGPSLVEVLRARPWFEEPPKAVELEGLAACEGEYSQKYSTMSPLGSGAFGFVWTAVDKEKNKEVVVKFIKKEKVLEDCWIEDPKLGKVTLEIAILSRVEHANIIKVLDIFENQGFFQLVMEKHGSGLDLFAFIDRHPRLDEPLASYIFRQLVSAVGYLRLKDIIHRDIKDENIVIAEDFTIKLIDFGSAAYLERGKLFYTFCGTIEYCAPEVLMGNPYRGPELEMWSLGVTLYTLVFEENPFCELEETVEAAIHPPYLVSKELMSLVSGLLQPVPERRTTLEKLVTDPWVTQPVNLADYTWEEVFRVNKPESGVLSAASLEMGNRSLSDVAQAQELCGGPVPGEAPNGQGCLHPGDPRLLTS
inhibition at 1 µM reference
Your answer should be a plain number; it is taken to be in %.

Known results for compounds:
COC(=O)N[C@@H](C)CNc1nccc(-c2cn(C(C)C)nc2-c2cc(Cl)cc(NS(C)(=O)=O)c2F)n1 [encorafenib]    -3
CCN1CCN(c2ccc(Nc3cc(N(C)C(=O)Nc4c(Cl)c(OC)cc(OC)c4Cl)ncn3)cc2)CC1 [infigratinib]    -1.46
CO[C@]1(C(=O)N[C@@H](C)c2ccc(-n3cc(F)cn3)nc2)CC[C@H](c2nc(C)cc(Nc3cc(C)[nH]n3)n2)CC1 [pralsetinib]    -2.38
FC(F)(F)c1ccc(CNc2ccc(Cc3c[nH]c4ncc(Cl)cc34)cn2)cn1 [pexidartinib]    6
C[C@H](Nc1ncnc2nc[nH]c12)c1cc2cccc(Cl)c2c(=O)n1-c1ccccc1 [duvelisib]    -0.608

So for C[C@H]1Oc2cc(cnc2N)-c2c(nn(C)c2C#N)CN(C)C(=O)c2ccc(F)cc21 [lorlatinib] , the logged inhibition at 1 µM turned out to be 0.792

So for Cn1cnc2c(F)c(Nc3ccc(Br)cc3Cl)c(C(=O)NOCCO)cc21 [selumetinib] , the logged inhibition at 1 µM turned out to be -2

So for COc1cc2ncnc(Nc3ccc(F)c(Cl)c3)c2cc1NC(=O)/C=C/CN1CCCCC1 [dacomitinib] , the logged inhibition at 1 µM turned out to be 5.35

* * *

biological target: panel of 255 wild-type kinases (Homo sapiens, UniProt P35968); assay: Kinase panel profiling at 1 µmol/L (MSA or IMAP), percentage inhibition; assay type: biochemical; details: kinase KDR; 1 µmol/L single concentration; read-out: %-inhibition at 1 µmol/L, KDR
Sequence (P35968 20-1356): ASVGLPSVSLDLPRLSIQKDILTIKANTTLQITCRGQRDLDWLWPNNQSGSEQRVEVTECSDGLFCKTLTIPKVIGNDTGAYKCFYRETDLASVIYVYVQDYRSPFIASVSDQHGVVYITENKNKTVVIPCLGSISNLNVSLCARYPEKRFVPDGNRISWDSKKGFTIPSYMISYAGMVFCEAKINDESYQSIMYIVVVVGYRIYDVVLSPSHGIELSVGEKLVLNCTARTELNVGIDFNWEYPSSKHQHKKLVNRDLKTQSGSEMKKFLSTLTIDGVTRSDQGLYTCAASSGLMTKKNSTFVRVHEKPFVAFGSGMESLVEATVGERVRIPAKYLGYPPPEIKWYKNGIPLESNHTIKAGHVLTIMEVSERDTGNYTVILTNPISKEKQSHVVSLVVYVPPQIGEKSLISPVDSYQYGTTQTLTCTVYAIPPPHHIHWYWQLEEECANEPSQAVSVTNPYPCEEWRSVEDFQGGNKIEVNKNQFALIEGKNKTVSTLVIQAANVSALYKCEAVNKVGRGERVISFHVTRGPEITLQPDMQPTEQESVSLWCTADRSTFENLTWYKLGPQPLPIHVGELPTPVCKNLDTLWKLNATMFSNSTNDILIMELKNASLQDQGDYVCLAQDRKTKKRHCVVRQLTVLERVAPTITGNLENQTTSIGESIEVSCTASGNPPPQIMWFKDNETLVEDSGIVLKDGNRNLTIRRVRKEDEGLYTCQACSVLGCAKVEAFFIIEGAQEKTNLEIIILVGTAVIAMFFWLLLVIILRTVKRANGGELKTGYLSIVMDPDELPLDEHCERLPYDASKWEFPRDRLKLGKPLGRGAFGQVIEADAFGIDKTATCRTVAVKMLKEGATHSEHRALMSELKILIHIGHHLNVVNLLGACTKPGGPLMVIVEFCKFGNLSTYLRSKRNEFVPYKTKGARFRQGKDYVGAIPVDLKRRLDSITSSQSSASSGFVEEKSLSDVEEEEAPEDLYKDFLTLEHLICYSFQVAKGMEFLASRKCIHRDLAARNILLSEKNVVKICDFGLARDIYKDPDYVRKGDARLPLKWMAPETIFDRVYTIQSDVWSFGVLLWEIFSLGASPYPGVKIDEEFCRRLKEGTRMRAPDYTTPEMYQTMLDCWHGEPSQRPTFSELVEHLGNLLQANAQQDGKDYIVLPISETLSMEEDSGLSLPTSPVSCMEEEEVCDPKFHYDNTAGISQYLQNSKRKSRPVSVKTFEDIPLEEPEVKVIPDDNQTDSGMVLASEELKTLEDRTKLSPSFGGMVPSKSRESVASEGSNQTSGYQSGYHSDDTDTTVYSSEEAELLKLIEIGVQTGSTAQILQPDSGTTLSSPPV
Quick rule: inhibition at 1 µM of at least 70% means YES, below that means NO.

Worked examples, 3 molecules total:
Cc1cc(Nc2ncnc3ccc(NC4=NC(C)(C)CO4)cc23)ccc1Oc1ccn2ncnc2c1 [tucatinib]    NO
CCc1nc(C(N)=O)c(Nc2ccc(N3CCC(N4CCN(C)CC4)CC3)c(OC)c2)nc1NC1CCOCC1 [gilteritinib]    YES
C[C@H]1Oc2cc(cnc2N)-c2c(nn(C)c2C#N)CN(C)C(=O)c2ccc(F)cc21 [lorlatinib]    NO

Identify whether the reported inhibition at 1 µM of the following molecule is 70% or greater: CCN1CCN(c2ccc(Nc3cc(N(C)C(=O)Nc4c(Cl)c(OC)cc(OC)c4Cl)ncn3)cc2)CC1 [infigratinib]
YES

Identify whether the reported inhibition at 1 µM of the following molecule is 70% or greater: FC(F)(F)c1ccc(CNc2ccc(Cc3c[nH]c4ncc(Cl)cc34)cn2)cn1 [pexidartinib]
YES

Identify whether the reported inhibition at 1 µM of the following molecule is 70% or greater: COC(=O)N[C@@H](C)CNc1nccc(-c2cn(C(C)C)nc2-c2cc(Cl)cc(NS(C)(=O)=O)c2F)n1 [encorafenib]
NO

Identify whether the reported inhibition at 1 µM of the following molecule is 70% or greater: Cn1cnc2c(F)c(Nc3ccc(Br)cc3F)c(C(=O)NOCCO)cc21 [binimetinib]
NO

Identify whether the reported inhibition at 1 µM of the following molecule is 70% or greater: Cc1nc(NC(=O)N2CCC[C@H]2C(N)=O)sc1-c1ccnc(C(C)(C)C(F)(F)F)c1 [alpelisib]
NO

Identify whether the reported inhibition at 1 µM of the following molecule is 70% or greater: O=C(Nc1cnn2ccc(N3CCC[C@@H]3c3cc(F)ccc3F)nc12)N1CC[C@H](O)C1 [larotrectinib]
NO

Identify whether the reported inhibition at 1 µM of the following molecule is 70% or greater: Cn1cnc2c(F)c(Nc3ccc(Br)cc3Cl)c(C(=O)NOCCO)cc21 [selumetinib]
NO

Identify whether the reported inhibition at 1 µM of the following molecule is 70% or greater: C[C@H](Nc1ncnc2nc[nH]c12)c1cc2cccc(Cl)c2c(=O)n1-c1ccccc1 [duvelisib]
NO

* * *

IC50 reference
system: 134 cancer cell lines; assay: Cell viability assay (ATPlite, 72 hours), IC50 on cancer cell line panel; conditions: Homo sapiens, MDA-MB-453, read-out: IC50 in cell proliferation assay, MDA-MB-453 cell line

Cc1cc(Nc2ncc(Cl)c(Nc3ccccc3S(=O)(=O)C(C)C)n2)c(OC(C)C)cc1C1CCNCC1    0.944 µM
CCc1nc(C(N)=O)c(Nc2ccc(N3CCC(N4CCN(C)CC4)CC3)c(OC)c2)nc1NC1CCOCC1    8.82 µM
FC(F)(F)c1ccc(CNc2ccc(Cc3c[nH]c4ncc(Cl)cc34)cn2)cn1    > 31.6 µM
CCCS(=O)(=O)Nc1ccc(F)c(C(=O)c2c[nH]c3ncc(-c4ccc(Cl)cc4)cc23)c1F    > 31.6 µM

# value of IC50, 134 cancer cell lines, item CC(=O)Nc1cccc(-n2c(=O)n(C3CC3)c(=O)c3c(Nc4ccc(I)cc4F)n(C)c(=O)c(C)c32)c1 = 0.27 µM

# value of IC50, 134 cancer cell lines, item C[C@H](Nc1ncnc2nc[nH]c12)c1cc2cccc(Cl)c2c(=O)n1-c1ccccc1 = > 31.6 µM

* * *

inhibition at 1 µM reference
molecular target: panel of 255 wild-type kinases (Homo sapiens); assay: Kinase panel profiling at 1 µmol/L (MSA or IMAP), percentage inhibition; type: biochemical; details: kinase WNK2; 1 µmol/L single concentration; read-out: %-inhibition at 1 µmol/L, WNK2
Your answer should be a plain number; it is taken to be in %.

Known results for compounds:
C[C@H]1Oc2cc(cnc2N)-c2c(nn(C)c2C#N)CN(C)C(=O)c2ccc(F)cc21 [lorlatinib]    -0.739
COc1cc2ncnc(Nc3ccc(F)c(Cl)c3)c2cc1NC(=O)/C=C/CN1CCCCC1 [dacomitinib]    -4
Cn1cnc2c(F)c(Nc3ccc(Br)cc3F)c(C(=O)NOCCO)cc21 [binimetinib]    -2.48
Cn1cc(-c2cc3c(N4CCN(c5ncc([C@@](C)(N)c6ccc(F)cc6)cn5)CC4)ncnn3c2)cn1 [avapritinib]    0.928
Cn1cnc2c(F)c(Nc3ccc(Br)cc3Cl)c(C(=O)NOCCO)cc21 [selumetinib]    -4
CCN1C(=O)N(c2c(F)c(OC)cc(OC)c2F)Cc2cnc3[nH]c(CN4CCOCC4)cc3c21 [pemigatinib]    -1.88
CCN1CCN(c2ccc(Nc3cc(N(C)C(=O)Nc4c(Cl)c(OC)cc(OC)c4Cl)ncn3)cc2)CC1 [infigratinib]    1
CN1CCN(c2ccc(C(=O)Nc3n[nH]c4ccc(Cc5cc(F)cc(F)c5)cc34)c(NC3CCOCC3)c2)CC1 [entrectinib]    2.24
CCc1nc(C(N)=O)c(Nc2ccc(N3CCC(N4CCN(C)CC4)CC3)c(OC)c2)nc1NC1CCOCC1 [gilteritinib]    -1
Cc1nc(NC(=O)N2CCC[C@H]2C(N)=O)sc1-c1ccnc(C(C)(C)C(F)(F)F)c1 [alpelisib]    -3.36

So for Cc1cc(Nc2ncnc3ccc(NC4=NC(C)(C)CO4)cc23)ccc1Oc1ccn2ncnc2c1 [tucatinib] , the logged inhibition at 1 µM turned out to be 0.536

So for CCn1c(=O)c(-c2cc(NC(=O)Nc3ccccc3)c(F)cc2Br)cc2cnc(NC)cc21 [ripretinib] , the logged inhibition at 1 µM turned out to be -1.64

So for C=CC(=O)N1CCC([C@@H]2CCNc3c(C(N)=O)c(-c4ccc(Oc5ccccc5)cc4)nn32)CC1 [zanubrutinib] , the logged inhibition at 1 µM turned out to be 2

So for FC(F)(F)c1ccc(CNc2ccc(Cc3c[nH]c4ncc(Cl)cc34)cn2)cn1 [pexidartinib] , the logged inhibition at 1 µM turned out to be -1.8

So for COc1ccc(CN2C3CC2CN(c2ccc(-c4cc(OCC(C)(C)O)cn5ncc(C#N)c45)cn2)C3)cn1 [selpercatinib] , the logged inhibition at 1 µM turned out to be -2.37

So for COC(=O)N[C@@H](C)CNc1nccc(-c2cn(C(C)C)nc2-c2cc(Cl)cc(NS(C)(=O)=O)c2F)n1 [encorafenib] , the logged inhibition at 1 µM turned out to be -0.751

* * *

Target: panel of 255 wild-type kinases (Homo sapiens, UniProt Q12866)
Sequence (Q12866 21-999): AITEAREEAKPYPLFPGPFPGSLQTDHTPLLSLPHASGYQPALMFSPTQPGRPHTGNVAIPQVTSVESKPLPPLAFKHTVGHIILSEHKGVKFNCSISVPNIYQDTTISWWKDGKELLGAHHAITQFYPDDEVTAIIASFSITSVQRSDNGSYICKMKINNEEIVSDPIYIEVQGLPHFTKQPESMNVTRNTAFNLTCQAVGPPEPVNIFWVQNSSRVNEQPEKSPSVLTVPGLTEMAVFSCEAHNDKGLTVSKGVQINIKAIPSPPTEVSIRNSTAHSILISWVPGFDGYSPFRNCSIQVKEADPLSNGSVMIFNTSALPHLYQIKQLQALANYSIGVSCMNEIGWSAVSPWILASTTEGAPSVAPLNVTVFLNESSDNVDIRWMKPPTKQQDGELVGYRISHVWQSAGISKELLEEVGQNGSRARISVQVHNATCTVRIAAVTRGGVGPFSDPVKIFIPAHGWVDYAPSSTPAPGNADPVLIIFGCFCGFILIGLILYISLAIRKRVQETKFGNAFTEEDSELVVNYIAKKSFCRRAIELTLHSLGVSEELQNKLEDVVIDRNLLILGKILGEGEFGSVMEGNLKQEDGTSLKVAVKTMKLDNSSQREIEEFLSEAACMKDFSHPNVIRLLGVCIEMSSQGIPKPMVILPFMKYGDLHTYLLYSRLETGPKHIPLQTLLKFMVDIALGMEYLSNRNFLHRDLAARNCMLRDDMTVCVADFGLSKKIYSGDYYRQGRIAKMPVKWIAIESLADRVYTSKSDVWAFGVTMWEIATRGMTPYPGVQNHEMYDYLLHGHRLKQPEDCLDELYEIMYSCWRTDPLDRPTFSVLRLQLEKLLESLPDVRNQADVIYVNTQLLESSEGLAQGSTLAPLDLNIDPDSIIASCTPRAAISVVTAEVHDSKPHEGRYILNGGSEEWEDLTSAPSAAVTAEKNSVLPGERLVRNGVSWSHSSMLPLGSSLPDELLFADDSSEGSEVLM
Test: Kinase panel profiling at 1 µmol/L (MSA or IMAP), percentage inhibition
Assay type: biochemical
Settings: MER; 1 µmol/L single concentration; read-out: %-inhibition, MER
Quick rule: inhibition at 1 µM of at least 10% means TRUE, below that means FALSE.

Worked examples, 3 molecules total:
COc1ccc(CN2C3CC2CN(c2ccc(-c4cc(OCC(C)(C)O)cn5ncc(C#N)c45)cn2)C3)cn1    TRUE
CCN1CCN(c2ccc(Nc3cc(N(C)C(=O)Nc4c(Cl)c(OC)cc(OC)c4Cl)ncn3)cc2)CC1    TRUE
O=C(Nc1cnn2ccc(N3CCC[C@@H]3c3cc(F)ccc3F)nc12)N1CC[C@H](O)C1    FALSE

Identify whether the reported inhibition at 1 µM of the following molecule is 10% or greater: Cn1cnc2c(F)c(Nc3ccc(Br)cc3F)c(C(=O)NOCCO)cc21
FALSE

Identify whether the reported inhibition at 1 µM of the following molecule is 10% or greater: FC(F)(F)c1ccc(CNc2ccc(Cc3c[nH]c4ncc(Cl)cc34)cn2)cn1
TRUE

Identify whether the reported inhibition at 1 µM of the following molecule is 10% or greater: Cc1nc(NC(=O)N2CCC[C@H]2C(N)=O)sc1-c1ccnc(C(C)(C)C(F)(F)F)c1
FALSE

Identify whether the reported inhibition at 1 µM of the following molecule is 10% or greater: C[C@H]1Oc2cc(cnc2N)-c2c(nn(C)c2C#N)CN(C)C(=O)c2ccc(F)cc21
TRUE
